Just for reference, PubChem BioAssay (NCI) is where these values come from.

system: HCT-116 colon; test: NCI-60 one-dose screen, 48 h (100 = growth as untreated, 0 = no growth, -100 = all killed); conditions: 10 µM unless noted
About 83,000 compounds went through this panel and 20% of them were active in at least one assay; those are over-represented in the sample as a whole.
EXPERIMENTAL READOUT: growth (%)
Use % as the unit, but write only the number.

{"COMPOUND": "O=C(Nc1ccccc1)Nc1nc2ccc([N+](=O)[O-])cc2[nH]1", "EXPERIMENTAL READOUT": "growth", "OBSERVED VALUE": 39.4}
{"COMPOUND": "CCS(=O)(=O)Nc1ccc(C(=O)CC2(O)C(=O)Nc3ccccc32)cc1 (stereo not given)", "EXPERIMENTAL READOUT": "growth", "OBSERVED VALUE": 104}
{"COMPOUND": "COc1ccc(OC)c(NC(=O)CCCCCCNC(=O)C(O)(O)C(F)(F)F)c1", "EXPERIMENTAL READOUT": "growth", "OBSERVED VALUE": 7.1}
{"COMPOUND": "CCCNNC(=O)c1ccc(-c2ccc(NC(=O)CCCCCCC(=O)N[C@H](C(=O)N3C[C@H](O)C[C@H]3C(=O)N[C@@H](C)c3ccc(-c4scnc4C)cc3)C(C)(C)C)cc2)cc1", "EXPERIMENTAL READOUT": "growth", "OBSERVED VALUE": 7.95}

Now consider a different compound.
Query string: Name the reported growth value associated with the compound COc1ccc2[nH]cc(/C=N/Nc3ccnc4cc(Cl)ccc34)c2c1
Result string: -50.5
